# EXPERIMENTAL_DETAILS: Cellular accumulation ratio (CAR) for chloroquine sensitive HB3 strain of Plasmodium falciparum
# Format: functional
MEASURED_PARAMETER: CAR
Lab note: jot the number down without any unit.

# annotated cases, reported CAR shown
- COMPOUND: "CCN(CC)Cc1c(O)cc(F)c(Nc2ccnc3cc(Cl)ccc23)c1F"
  VALUE_OBSERVED: 922
- COMPOUND: "CC(C)(C)NCc1cc(Nc2ccnc3cc(Cl)ccc23)cc(-c2ccc(Cl)cc2)c1O"
  VALUE_OBSERVED: 70200
- COMPOUND: "CCN(CC)Cc1cc(Nc2ccnc3cc(Cl)ccc23)ccc1O"
  VALUE_OBSERVED: 12600
- COMPOUND: "CC(C)(C)NCc1cc(Nc2ccnc3cc(Cl)ccc23)ccc1O"
  VALUE_OBSERVED: 21100
- COMPOUND: "CCN(CC)Cc1cc(Nc2ccnc3cc(Cl)ccc23)cc(F)c1O"
  VALUE_OBSERVED: 1510
- COMPOUND: "CC(C)(C)NCc1cc(Nc2ccnc3cc(Cl)ccc23)cc(-c2ccc(Cl)cc2)c1F"
  VALUE_OBSERVED: 1080
- COMPOUND: "CCN(CC)CCCC(C)Nc1ccnc2cc(Cl)ccc12 (configuration not stated)"
  VALUE_OBSERVED: 1860
- COMPOUND: "CCNCCCC(C)Nc1ccnc2cc(Cl)ccc12 (configuration not stated)"
  VALUE_OBSERVED: 682

I am curious: what CAR value has been reported for `CCN(CC)Cc1cc(Nc2ccnc3cc(Cl)ccc23)ccc1F` ?
1710
